tgt: OXA-48 (Klebsiella pneumoniae)
Sequence (Q6XEC0 23-265, looked up): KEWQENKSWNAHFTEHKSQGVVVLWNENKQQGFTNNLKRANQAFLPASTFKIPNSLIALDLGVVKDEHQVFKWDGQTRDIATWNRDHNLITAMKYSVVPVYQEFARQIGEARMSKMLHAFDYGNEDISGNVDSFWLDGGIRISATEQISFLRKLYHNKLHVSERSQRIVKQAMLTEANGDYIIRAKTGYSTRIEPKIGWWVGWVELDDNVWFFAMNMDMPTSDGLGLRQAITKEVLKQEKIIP
procedure text: OXA-48 inhibition assay using nitrocefin as reporter
Format: biochemical
Design: His-tag (N, cleaved yes); made in house; host or cells: E. coli BL21(DE3), pET28a
protocol conditions: purified OXA-48, compared with CDD-97 where a derivative
property label: potency/activity against OXA-48 in words

- smiles code: "CCOc1ccccc1N1CCN(c2ncnc(N3CC(F)(C(=O)NC)C3)n2)CC1"
  test value: "potency was low"
- smiles code: "CCOc1ccccc1N1CCN(c2ncnc(N3CC(F)(C(=O)O)C3)n2)CC1"
  test value: "potency was low"

----------
tgt: OXA-48 (Klebsiella pneumoniae)
procedure text: OXA-48 inhibition assay using nitrocefin as reporter
Format: biochemical
Parameters: His-tag (N, cleaved yes); made in house; host or cells: E. coli BL21(DE3), pET28a
protocol conditions: purified OXA-48, nitrocefin hydrolysis, Morrison fit
Decision: Ki beneath 2 µM gives criterion met; Ki meeting or exceeding 2 µM gives criterion not met.

Q) Below 2 µM on Ki? Entry `CCOc1ccccc1CCNc1ncnc(N2CCC(C(=O)O)CC2)n1`
A) criterion not met

Q) Dear colleague, could you confirm whether Ki of CCOc1ccccc1N1CCN(c2nc(NCCN)nc(N3CCC(C(=O)O)CC3)n2)CC1 [CDD-864] falls below 2 µM? Thanks.
A) criterion met

Q) Determine if `CN1CCN(c2ncnc(N3CCC(C(=O)O)CC3)n2)CC1` shows Ki strictly lower than 2 µM.
A) criterion not met

Q) Take the compound `CCOc1ccccc1N1CCN(c2nc(N)nc(N3CCC(C(=O)O)CC3)n2)CC1` and say whether its Ki is less than 2 µM.
A) criterion met

Q) Is Ki strictly under 2 µM for the entry CCOc1ccccc1N1CCN(c2ncnc(N3CCC(S(=O)(=O)O)CC3)n2)CC1 [drawing 46] ?
A) criterion met

Q) hey, is Ki for `O=C(O)C1CCN(c2ncnc(N3CCN(c4ccccc4C(F)(F)F)CC3)n2)CC1` lower than 2 µM or not?
A) criterion met

Q) Field: below-cutoff. Rule: recorded Ki strictly less than 2 µM. Subject: `CCOc1ccccc1N1CCN(c2nc(N3CCC(C(=O)O)CC3)nc(N3CC(F)(C(=O)NC)C3)n2)CC1`
A) criterion not met

Q) Hello, is Ki of the following compound strictly smaller than 2 µM? `CCOc1ccccc1N1CCN(c2ncnc(N3CCC(N)(C(=O)O)CC3)n2)CC1`
A) criterion not met

Q) Criterion: Ki strictly below 2 µM. Is it met by `CCOc1ccccc1OCCOc1ncnc(N2CCC(C(=O)O)CC2)n1` ?
A) criterion not met
